Target desc: Human HER3, endogenous, on human cancer cell lines (SK-Br-3, MCF7, BT-474) (human, UniProt P21860 20-1342)
Sequence (P21860 20-1342): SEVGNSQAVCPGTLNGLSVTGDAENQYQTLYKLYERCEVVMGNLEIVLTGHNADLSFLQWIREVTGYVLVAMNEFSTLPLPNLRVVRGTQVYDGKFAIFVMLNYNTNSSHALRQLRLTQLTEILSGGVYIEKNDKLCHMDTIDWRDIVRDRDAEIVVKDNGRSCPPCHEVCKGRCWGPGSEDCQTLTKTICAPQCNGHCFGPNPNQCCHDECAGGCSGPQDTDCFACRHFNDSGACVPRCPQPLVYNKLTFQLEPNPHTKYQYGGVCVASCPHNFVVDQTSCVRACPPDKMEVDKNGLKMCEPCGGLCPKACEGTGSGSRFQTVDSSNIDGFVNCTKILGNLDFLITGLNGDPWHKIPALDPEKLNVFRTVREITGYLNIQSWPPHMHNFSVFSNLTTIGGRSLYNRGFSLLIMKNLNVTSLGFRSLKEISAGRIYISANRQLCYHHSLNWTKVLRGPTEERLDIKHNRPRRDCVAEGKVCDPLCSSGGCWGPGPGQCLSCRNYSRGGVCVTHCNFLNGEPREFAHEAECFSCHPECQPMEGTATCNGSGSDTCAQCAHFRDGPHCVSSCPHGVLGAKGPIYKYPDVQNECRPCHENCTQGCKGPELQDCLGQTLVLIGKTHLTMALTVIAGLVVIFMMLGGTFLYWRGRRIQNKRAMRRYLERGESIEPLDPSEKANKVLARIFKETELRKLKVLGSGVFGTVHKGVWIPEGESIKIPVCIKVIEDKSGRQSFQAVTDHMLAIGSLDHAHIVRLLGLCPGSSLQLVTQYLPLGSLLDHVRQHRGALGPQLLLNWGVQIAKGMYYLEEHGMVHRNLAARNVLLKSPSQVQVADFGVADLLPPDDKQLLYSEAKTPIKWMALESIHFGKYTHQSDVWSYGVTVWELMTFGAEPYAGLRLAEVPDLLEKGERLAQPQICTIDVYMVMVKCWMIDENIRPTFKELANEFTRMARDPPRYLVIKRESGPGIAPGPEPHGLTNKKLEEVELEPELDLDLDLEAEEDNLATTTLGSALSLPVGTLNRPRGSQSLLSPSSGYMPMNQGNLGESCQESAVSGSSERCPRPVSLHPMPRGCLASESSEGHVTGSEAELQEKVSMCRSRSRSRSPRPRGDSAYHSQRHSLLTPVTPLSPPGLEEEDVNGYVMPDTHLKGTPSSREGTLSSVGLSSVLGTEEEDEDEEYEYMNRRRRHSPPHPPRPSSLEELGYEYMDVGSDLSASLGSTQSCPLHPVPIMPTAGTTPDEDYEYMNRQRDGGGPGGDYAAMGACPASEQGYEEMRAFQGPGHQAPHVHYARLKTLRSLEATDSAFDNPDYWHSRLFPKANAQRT
Assay comment: cell-based or functional assay
Below, each entry is listed alongside its reported BT-474 proliferation % inhibition.
Unit % implied. Number only.

Solved entries:
Binder	Unit text	Experimental value
MOR13763 (antibody, human IgG1, kappa, V domains shown, tested as IgG) VH: QVQLVQSGAEVKKPGESLKISCKGSGYSFTSYWVAWVRQMPGKGLEWMGIIYPGQSDTIYSPSFQGQVTISADKSISTAYLQWSSLKASDTAMYYCARVHIIQPPSAWSYNAMDVWGQGTLVTVSS VL: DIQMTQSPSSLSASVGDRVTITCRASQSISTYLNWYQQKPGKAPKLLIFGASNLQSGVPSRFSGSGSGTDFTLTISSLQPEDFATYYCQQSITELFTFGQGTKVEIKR	%	36
MOR13756 (antibody, human IgG1, kappa, V domains shown, tested as IgG) VH: QVQLVQSGAEVKKPGESLKISCKGSGYSFTLTWVAWVRQMPGKGLEWMGIIYPGQSDTIYSPSFQGQVTISADKSISTAYLQWSSLKASDTAMYYCARVHIIQPPSAWSYNAMDVWGQGTLVTVSS VL: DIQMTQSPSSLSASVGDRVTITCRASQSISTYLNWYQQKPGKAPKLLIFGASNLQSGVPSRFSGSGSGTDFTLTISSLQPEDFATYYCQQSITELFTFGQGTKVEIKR	%	42

Proceeding to the next binder to report its BT-474 proliferation % inhibition.
Query :: Please give the measured BT-474 proliferation % inhibition for this binder: MOR13758 (antibody, human IgG1, kappa, V domains shown, tested as IgG) VH: QVQLVQSGAEVKKPGESLKISCKGSGYSFTLYWVAWVRQMPGKGLEWMGIIYPGQSDTIYSPSFQGQVTISADKSISTAYLQWSSLKASDTAMYYCARVHIIQPPSAWSYNAMDVWGQGTLVTVSS VL: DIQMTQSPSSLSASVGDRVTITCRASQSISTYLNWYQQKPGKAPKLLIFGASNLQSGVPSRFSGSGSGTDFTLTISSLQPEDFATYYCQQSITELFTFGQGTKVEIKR
Result :: 38
